The measurements presented in this section are drawn from patent EP0552417B1.

tested target: endothelin receptor A (ETA) (Sus scrofa, UniProt Q29010)
Construct: A membrane fraction prepared from the porcine heart; from tissue; host or cells: porcine heart membrane fraction
Sequence (Q29010 21-427): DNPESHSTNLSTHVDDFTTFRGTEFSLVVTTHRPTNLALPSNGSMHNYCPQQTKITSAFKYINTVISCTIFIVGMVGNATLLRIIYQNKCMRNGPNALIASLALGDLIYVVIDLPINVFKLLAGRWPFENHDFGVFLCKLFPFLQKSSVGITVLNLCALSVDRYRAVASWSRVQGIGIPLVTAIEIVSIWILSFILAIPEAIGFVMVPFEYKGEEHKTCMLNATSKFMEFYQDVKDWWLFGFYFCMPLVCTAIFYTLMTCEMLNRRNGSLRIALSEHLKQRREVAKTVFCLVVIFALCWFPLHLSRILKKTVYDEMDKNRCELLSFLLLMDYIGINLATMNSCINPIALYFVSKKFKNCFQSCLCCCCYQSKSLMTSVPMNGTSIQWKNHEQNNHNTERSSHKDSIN
experiment summary: Assay of affinity for receptor (1): binding activity on ETA receptor, 125I-labeled endothelin-1, porcine heart membrane fraction
Parameters: key: relative specific activity; reference cyclic pentapeptide ETA binding = 1.0
condition parameters: specific activity, taking the binding activity of control cyclo[-D-Glu-Ala-D-aIle-Leu-D-Trp-] on receptor A as 1.0, 25°C, 1 hour
Description: Assay of Affinity for Receptor (1) ... Binding Activity on ETA Receptor A membrane fraction prepared from the porcine heart was diluted to 0.15 mg/ml by using a buffer solution for assay, and 100 µl of the resulting suspension of the membrane fraction was poured into each assay tube to use for assay. To this suspension of the membrane fraction was added 2 µl of 5 nM ^125I-labeled endothelin-1 solution. […]
Non-standard residues stand in square brackets, D forms with d. Residues, ends and D or L forms follow the SMILES beside them. Hyp = O=C(O)[C@@H]1C[C@@H](O)CN1
value kind: Binding Activity on ET Receptor (R. act.) ETA
Lab note: jot the number down without any unit.

Study these solved cases before continuing.
- compound: "CC(C)C[C@@H]1NC(=O)[C@@H](CC(C)C)NC(=O)[C@H](CC(=O)O)NC(=O)[C@@H]2C[C@@H](O)CN2C(=O)[C@@H](CC(=O)O)NC(=O)[C@@H](Cc2c[nH]c3ccccc23)NC1=O [Example 14, cyclo[-D-Asp-Hyp-Asp-D-Leu-Leu-D-Trp-]] (cyclo(D[dL]L[dW][dD][Hyp]))"
  recorded measurement: 70
- compound: "CC(C)C[C@@H]1NC(=O)[C@@H](CC(C)C)NC(=O)[C@H](CC(=O)O)NC(=O)[C@H](Cc2c[nH]c3ccccc23)NC(=O)[C@@H](CC(=O)O)NC(=O)[C@@H](Cc2c[nH]c3ccccc23)NC1=O [Example 8, cyclo[-D-Asp-Trp-Asp-D-Leu-Leu-D-Trp-]] (cyclo(D[dL]L[dW][dD]W))"
  recorded measurement: 76
- compound: "CC(C)C[C@@H]1NC(=O)[C@@H](Cc2ccccc2)NC(=O)[C@H](CC(=O)O)NC(=O)[C@H](Cc2c[nH]c3ccccc23)NC(=O)[C@@H](CC(=O)O)NC(=O)[C@@H](Cc2c[nH]c3ccccc23)NC1=O [Example 60, Cyclo[-D-Asp-Trp-Asp-D-Phe-Leu-D-Trp-]] (cyclo(D[dF]L[dW][dD]W))"
  recorded measurement: 1

What measured Binding Activity on ET Receptor (R. act.) ETA goes with CC(C)C[C@@H]1NC(=O)[C@@H](CC(C)C)NC(=O)[C@H](C)NC(=O)[C@H](CC(=O)O)NC(=O)[C@@H](CC(=O)O)NC(=O)[C@@H](Cc2c[nH]c3ccccc23)NC1=O [Example 6, cyclo[-D-Asp-Asp-Ala-D-Leu-Leu-D-Trp-]] (cyclo(A[dL]L[dW][dD]D)) ?
6.0

Another compound: CC(C)C[C@@H]1NC(=O)[C@@H](CC(C)C)NC(=O)[C@@H](CC(=O)O)NC(=O)[C@H](C)NC(=O)[C@@H](CC(=O)O)NC(=O)[C@@H](Cc2c[nH]c3ccccc23)NC1=O [Example 2, cyclo[-D-Asp-Ala-D-Asp-D-Leu-Leu-D-Trp-]] (cyclo(A[dD][dL]L[dW][dD]))
3.7

Another compound: CC(C)C[C@H]1NC(=O)[C@H](CC(=O)O)NC(=O)[C@H](C)NC(=O)[C@@H](CC(=O)O)NC(=O)[C@@H](Cc2c[nH]c3ccccc23)NC(=O)[C@H](Cc2c[nH]c3ccccc23)NC1=O [Example 58, Cyclo[-D-Asp-Ala-Asp-D-Leu-Trp-D-Trp-]] (cyclo(AD[dL]W[dW][dD]))
0.7

----------
Tested on: ETB
experiment summary: ETB radio receptor assay *2, 125I-endothelin-1, guinea pig kidney crude membrane fraction
Type: binding, Guinea pigs
condition parameters: relative activity, 37 °C, 90 minutes
Non-standard residues stand in square brackets, D forms with d. Residues, ends and D or L forms follow the SMILES beside them. *: point of attachment. Bn = c1ccc(C*)cc1
value kind: Binding Activity on ET Receptor (R. act.) ETB*2

- compound: "CC(C)C[C@@H]1NC(=O)[C@@H](CC(C)C)NC(=O)[C@H](CCC(=O)O)NC(=O)[C@H](Cc2c[nH]c3ccccc23)NC(=O)[C@@H](CC(=O)O)NC(=O)[C@@H](Cc2c[nH]c3ccccc23)NC1=O [Example 34, Cyclo[-D-Asp-Trp-Glu-D-Leu-Leu-D-Trp-]] (cyclo(E[dL]L[dW][dD]W))"
  recorded measurement: 44
- compound: "CC(C)C[C@@H]1NC(=O)[C@@H](CC(C)C)NC(=O)[C@H](CC(=O)O)NC(=O)[C@H](C)NC(=O)[C@@H](CC(=O)O)NC(=O)[C@@H](Cc2c[nH]c3ccccc23)NC1=O [Example 1, cyclo[-D-Asp-Ala-Asp-D-Leu-Leu-D-Trp-]] (cyclo(AD[dL]L[dW][dD]))"
  recorded measurement: 2.0
- compound: "CC(C)C[C@H]1NC(=O)[C@H](CC(=O)O)NC(=O)[C@H](C)NC(=O)[C@@H](CC(=O)O)NC(=O)[C@@H](Cc2c[nH]c3ccccc23)NC(=O)[C@H](Cc2c[nH]c3ccccc23)NC1=O [Example 58, Cyclo[-D-Asp-Ala-Asp-D-Leu-Trp-D-Trp-]] (cyclo(AD[dL]W[dW][dD]))"
  recorded measurement: 22
- compound: "CC(C)C[C@@H]1NC(=O)[C@@H](CC(C)C)NC(=O)[C@H](CC(=O)O)NC(=O)[C@H](CC(=O)O)NC(=O)[C@@H](CC(=O)O)NC(=O)[C@@H](Cc2c[nH]c3ccccc23)NC1=O [Example 16, Cyclo[-D-Asp-Asp-Asp-D-Leu-Leu-D-Trp-]] (cyclo(DD[dL]L[dW][dD]))"
  recorded measurement: 34
- compound: "CC(C)C[C@@H]1NC(=O)[C@@H](CC(C)C)NC(=O)[C@H]2CCCN2C(=O)[C@H](CC(=O)O)NC(=O)[C@@H](CC(=O)O)NC(=O)[C@@H](Cc2c[nH]c3ccccc23)NC1=O [Example 31, Cyclo[-D-Asp-Asp-D-Pro-D-Leu-Leu-D-Trp-]] (cyclo(D[dP][dL]L[dW][dD]))"
  recorded measurement: 1.0

I. CC(C)C[C@@H]1NC(=O)[C@@H](CC(C)C)NC(=O)[C@H](COCc2ccccc2)NC(=O)[C@H](Cc2c[nH]c3ccccc23)NC(=O)[C@@H](CC(=O)O)NC(=O)[C@@H](Cc2c[nH]c3ccccc23)NC1=O [Example 38] (cyclo(L[dW][dD]WS(Bn)[dL]))
II. CC(C)C[C@@H]1NC(=O)[C@@H](CC(C)C)NC(=O)[C@H](CC(=O)O)NC(=O)[C@H](COCc2ccccc2)NC(=O)[C@@H](CC(=O)O)NC(=O)[C@@H](Cc2c[nH]c3ccccc23)NC1=O [Example 20] (cyclo(D[dL]L[dW][dD]S(Bn)))
Lab note: check whether I or II shows the higher recorded Binding Activity on ET Receptor (R. act.) ETB*2. Respond using the label that marks the chosen record.
I
